- Experimental Protocol: in vivo
- Test Settings: both, cynomolgus monkey, iv, 15 mg/kg/day, MRTinf, cynomolgus, 15 mg/kg/day i.v., Day 10, mean
Where a SMILES comes first, the peptide text is derived from it. Bridges are numbered along the chain shown (N, C = ends).
Endpoint: MRT inf (h)
Expressed in h, but write only the number.

Any idea what its MRT inf is? The molecule is CC[C@H](C)[C@@H]1NC(=O)[C@@H]2CSSC[C@H](NC(=O)[C@H](CCCNC(=N)N)NC(=O)[C@@H]3CSSC[C@H](NC1=O)C(=O)N[C@@H]([C@@H](C)O)C(=O)N[C@@H](CCCNC(=N)N)C(=O)NCC(=O)N[C@@H](Cc1ccccc1)C(=O)N3)C(=O)N[C@@H](CC(C)C)C(=O)N[C@H]1CSSC[C@H](NC(=O)[C@H](C(C)C)NC(=O)CNC(=O)[C@H](CCCNC(=N)N)NC(=O)[C@H](CCCNC(=N)N)NC1=O)C(=O)N[C@@H](CCCNC(=N)N)C(=O)N2 [Peptide 1] (cyclo(GFCRCLCRRGVCRCICTR); disulfide 3-16, 5-14, 7-12)
12

* * *

- Experimental Protocol: in vivo
- Test Settings: both, cynomolgus monkey, iv, 15 mg/kg/day, Cmax, cynomolgus, 15 mg/kg/day i.v., Day 10, mean
Where a SMILES comes first, the peptide text is derived from it. Bridges are numbered along the chain shown (N, C = ends).
Endpoint: Cmax (ng/mL)
Expressed in ng/mL, but write only the number.

Any idea what its Cmax is? The compound is CC[C@H](C)[C@@H]1NC(=O)[C@@H]2CSSC[C@H](NC(=O)[C@H](CCCNC(=N)N)NC(=O)[C@@H]3CSSC[C@H](NC1=O)C(=O)N[C@@H]([C@@H](C)O)C(=O)N[C@@H](CCCNC(=N)N)C(=O)NCC(=O)N[C@@H](Cc1ccccc1)C(=O)N3)C(=O)N[C@@H](CC(C)C)C(=O)N[C@H]1CSSC[C@H](NC(=O)[C@H](C(C)C)NC(=O)CNC(=O)[C@H](CCCNC(=N)N)NC(=O)[C@H](CCCNC(=N)N)NC1=O)C(=O)N[C@@H](CCCNC(=N)N)C(=O)N2 [Peptide 1] (cyclo(GFCRCLCRRGVCRCICTR); disulfide 3-16, 5-14, 7-12)
32200

* * *

- Experimental Protocol: in vivo
- Test Settings: both, cynomolgus monkey, iv, 15 mg/kg/day, AUC0-∞, cynomolgus, 15 mg/kg/day i.v., Day 10, mean
Where a SMILES comes first, the peptide text is derived from it. Bridges are numbered along the chain shown (N, C = ends).
Endpoint: AUC(0-inf) (µg·h/mL)
Expressed in µg·h/mL, but write only the number.

Any idea what its AUC(0-inf) is? The compound is CC[C@H](C)[C@@H]1NC(=O)[C@@H]2CSSC[C@H](NC(=O)[C@H](CCCNC(=N)N)NC(=O)[C@@H]3CSSC[C@H](NC1=O)C(=O)N[C@@H]([C@@H](C)O)C(=O)N[C@@H](CCCNC(=N)N)C(=O)NCC(=O)N[C@@H](Cc1ccccc1)C(=O)N3)C(=O)N[C@@H](CC(C)C)C(=O)N[C@H]1CSSC[C@H](NC(=O)[C@H](C(C)C)NC(=O)CNC(=O)[C@H](CCCNC(=N)N)NC(=O)[C@H](CCCNC(=N)N)NC1=O)C(=O)N[C@@H](CCCNC(=N)N)C(=O)N2 [Peptide 1] (cyclo(GFCRCLCRRGVCRCICTR); disulfide 3-16, 5-14, 7-12)
213

* * *

- Experimental Protocol: in vivo
- Test Settings: both, cynomolgus monkey
Where a SMILES comes first, the peptide text is derived from it. Bridges are numbered along the chain shown (N, C = ends).
Endpoint: half-life (h)
Expressed in h, but write only the number.

Any idea what its half-life is? The molecule is CC[C@H](C)[C@@H]1NC(=O)[C@@H]2CSSC[C@H](NC(=O)[C@H](CCCNC(=N)N)NC(=O)[C@@H]3CSSC[C@H](NC1=O)C(=O)N[C@@H]([C@@H](C)O)C(=O)N[C@@H](CCCNC(=N)N)C(=O)NCC(=O)N[C@@H](Cc1ccccc1)C(=O)N3)C(=O)N[C@@H](CC(C)C)C(=O)N[C@H]1CSSC[C@H](NC(=O)[C@H](C(C)C)NC(=O)CNC(=O)[C@H](CCCNC(=N)N)NC(=O)[C@H](CCCNC(=N)N)NC1=O)C(=O)N[C@@H](CCCNC(=N)N)C(=O)N2 [Peptide 1] (cyclo(GFCRCLCRRGVCRCICTR); disulfide 3-16, 5-14, 7-12)
9.53

* * *

- Experimental Protocol: Single i.v. bolus PK in a vervet monkey (pilot safety study)
- Assay type: in vivo, vervet/African green monkey (Chlorocebus aethiops sabaeus)
- Test Settings: male, monkey, plasma, iv, single 3 mg/kg i.v. bolus
Where a SMILES comes first, the peptide text is derived from it. Bridges are numbered along the chain shown (N, C = ends).
Endpoint: clearance (mL/min/kg)
Expressed in mL/min/kg, but write only the number.

Any idea what its clearance is? The compound is CC[C@H](C)[C@@H]1NC(=O)[C@@H]2CSSC[C@H](NC(=O)[C@H](CCCNC(=N)N)NC(=O)[C@@H]3CSSC[C@H](NC1=O)C(=O)N[C@@H]([C@@H](C)O)C(=O)N[C@@H](CCCNC(=N)N)C(=O)NCC(=O)N[C@@H](Cc1ccccc1)C(=O)N3)C(=O)N[C@@H](CC(C)C)C(=O)N[C@H]1CSSC[C@H](NC(=O)[C@H](C(C)C)NC(=O)CNC(=O)[C@H](CCCNC(=N)N)NC(=O)[C@H](CCCNC(=N)N)NC1=O)C(=O)N[C@@H](CCCNC(=N)N)C(=O)N2 [Peptide 1] (cyclo(GFCRCLCRRGVCRCICTR); disulfide 3-16, 5-14, 7-12)
2.27

* * *

- Experimental Protocol: in vivo
- Test Settings: both, cynomolgus monkey, iv, 1 mg/kg, AUC0-∞, cynomolgus, 1 mg/kg i.v., Day 1, mean
Where a SMILES comes first, the peptide text is derived from it. Bridges are numbered along the chain shown (N, C = ends).
Endpoint: AUC(0-inf) (ng·h/mL)
Expressed in ng·h/mL, but write only the number.

Any idea what its AUC(0-inf) is? The compound is CC[C@H](C)[C@@H]1NC(=O)[C@@H]2CSSC[C@H](NC(=O)[C@H](CCCNC(=N)N)NC(=O)[C@@H]3CSSC[C@H](NC1=O)C(=O)N[C@@H]([C@@H](C)O)C(=O)N[C@@H](CCCNC(=N)N)C(=O)NCC(=O)N[C@@H](Cc1ccccc1)C(=O)N3)C(=O)N[C@@H](CC(C)C)C(=O)N[C@H]1CSSC[C@H](NC(=O)[C@H](C(C)C)NC(=O)CNC(=O)[C@H](CCCNC(=N)N)NC(=O)[C@H](CCCNC(=N)N)NC1=O)C(=O)N[C@@H](CCCNC(=N)N)C(=O)N2 [Peptide 1] (cyclo(GFCRCLCRRGVCRCICTR); disulfide 3-16, 5-14, 7-12)
3880

* * *

- Experimental Protocol: in vivo
- Test Settings: both, cynomolgus monkey, iv, 10 mg/kg/day, CL, cynomolgus, 10 mg/kg/day i.v., Day 10, mean
Where a SMILES comes first, the peptide text is derived from it. Bridges are numbered along the chain shown (N, C = ends).
Endpoint: clearance
The reply must contain the numeric value and, after it, the unit.

Any idea what its clearance is? The compound is CC[C@H](C)[C@@H]1NC(=O)[C@@H]2CSSC[C@H](NC(=O)[C@H](CCCNC(=N)N)NC(=O)[C@@H]3CSSC[C@H](NC1=O)C(=O)N[C@@H]([C@@H](C)O)C(=O)N[C@@H](CCCNC(=N)N)C(=O)NCC(=O)N[C@@H](Cc1ccccc1)C(=O)N3)C(=O)N[C@@H](CC(C)C)C(=O)N[C@H]1CSSC[C@H](NC(=O)[C@H](C(C)C)NC(=O)CNC(=O)[C@H](CCCNC(=N)N)NC(=O)[C@H](CCCNC(=N)N)NC1=O)C(=O)N[C@@H](CCCNC(=N)N)C(=O)N2 [Peptide 1] (cyclo(GFCRCLCRRGVCRCICTR); disulfide 3-16, 5-14, 7-12)
1.48 mL/min/kg

* * *

- Experimental Protocol: in vivo
- Test Settings: both, Sprague-Dawley, rat, iv, 5 mg/kg/day
Where a SMILES comes first, the peptide text is derived from it. Bridges are numbered along the chain shown (N, C = ends).
Endpoint: MRT (h)
Expressed in h, but write only the number.

Any idea what its MRT is? The compound is CC[C@H](C)[C@@H]1NC(=O)[C@@H]2CSSC[C@H](NC(=O)[C@H](CCCNC(=N)N)NC(=O)[C@@H]3CSSC[C@H](NC1=O)C(=O)N[C@@H]([C@@H](C)O)C(=O)N[C@@H](CCCNC(=N)N)C(=O)NCC(=O)N[C@@H](Cc1ccccc1)C(=O)N3)C(=O)N[C@@H](CC(C)C)C(=O)N[C@H]1CSSC[C@H](NC(=O)[C@H](C(C)C)NC(=O)CNC(=O)[C@H](CCCNC(=N)N)NC(=O)[C@H](CCCNC(=N)N)NC1=O)C(=O)N[C@@H](CCCNC(=N)N)C(=O)N2 [Peptide 1] (cyclo(GFCRCLCRRGVCRCICTR); disulfide 3-16, 5-14, 7-12)
2.92

Attribution: patent US20240108702A1
